These data points were gathered from patent EP4786466A1.

# test.target: Recombinant GST-TAG-MASTL (Homo sapiens, UniProt Q96GX5)
# Construct: GST; purchased Thermo Fisher Scientific
# Sequence (Q96GX5 whole entry): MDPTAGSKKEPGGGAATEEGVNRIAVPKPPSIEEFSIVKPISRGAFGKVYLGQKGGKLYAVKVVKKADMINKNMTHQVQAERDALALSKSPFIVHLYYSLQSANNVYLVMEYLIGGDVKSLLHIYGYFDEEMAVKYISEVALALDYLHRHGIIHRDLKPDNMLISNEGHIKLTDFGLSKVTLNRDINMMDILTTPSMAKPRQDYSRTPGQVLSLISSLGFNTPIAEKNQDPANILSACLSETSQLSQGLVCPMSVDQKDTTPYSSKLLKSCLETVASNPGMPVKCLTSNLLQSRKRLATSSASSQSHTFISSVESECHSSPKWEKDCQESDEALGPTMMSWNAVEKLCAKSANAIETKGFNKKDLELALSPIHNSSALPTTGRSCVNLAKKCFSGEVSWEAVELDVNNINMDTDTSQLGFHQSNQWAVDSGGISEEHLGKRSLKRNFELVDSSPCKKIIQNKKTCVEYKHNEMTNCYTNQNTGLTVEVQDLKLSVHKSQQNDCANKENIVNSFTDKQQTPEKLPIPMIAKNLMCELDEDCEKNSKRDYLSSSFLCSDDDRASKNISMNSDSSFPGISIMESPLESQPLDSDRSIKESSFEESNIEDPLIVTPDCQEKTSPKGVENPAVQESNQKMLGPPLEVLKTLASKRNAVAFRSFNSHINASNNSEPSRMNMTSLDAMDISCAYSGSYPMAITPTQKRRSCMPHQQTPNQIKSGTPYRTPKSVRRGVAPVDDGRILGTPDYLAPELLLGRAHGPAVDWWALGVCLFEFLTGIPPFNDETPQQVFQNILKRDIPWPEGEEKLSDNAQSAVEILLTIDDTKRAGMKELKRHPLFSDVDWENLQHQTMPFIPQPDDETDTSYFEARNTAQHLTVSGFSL
# assay.remarks: HTRF-based kinase assay (HTRF KinEASE assay kit)
# Type: biochemical
# measurement.setup: HTRF; read-out: IC50(nM) MASTL activity
# Excerpt: Recombinant GST-TAG-MASTL (Thermo Fisher Scientific, MA, USA) was used for HTRF-based kinase assays. The HTRF KinEASE assay kit (CisBio, MA, USA) was used according to the manufacturer's instructions.
measured.endpoint: IC50 (nM)
Please state the figure in nM; there is no need to write the unit.

Some compounds with recorded IC50:
- compound: "c1ccc2c(Nc3cc(C4CC4)[nH]n3)nc(Nc3ccc(Cc4nnn[nH]4)cc3)nc2c1"
  IC50 [nM]: 164
- compound: "O=S(=O)(C1CC1)N1CC2CC1CN2c1nc(Nc2cc(C3CC3)[nH]n2)c2ccccc2n1 (stereo not shown) [compound 15i]"
  IC50 [nM]: 310
- compound: "CC(C)C(=O)N1CC=C(c2nc(Nc3cc(C4CC4)[nH]n3)c3ccccc3n2)CC1"
  IC50 [nM]: 136
- compound: "NC(=O)Cc1ccc(Nc2nc(Nc3cc(C4CC4)[nH]n3)c3ccccc3n2)cc1"
  IC50 [nM]: 392
- compound: "c1ccc2c(Nc3cc(C4CC4)[nH]n3)nc(N3CCC4(CC3)OCCO4)nc2c1"
  IC50 [nM]: 340

Incoming: Can you share its IC50? I mean this compound: CC(C)(C)OC(=O)N1CCN(c2nc(Nc3cc(C4CC4)[nH]n3)c3ccccc3n2)CC1
Outgoing: 569

Incoming: Can you share its IC50? I mean this compound: c1ccc(CNc2nc(Nc3cc(C4CC4)[nH]n3)c3ccccc3n2)cc1
Outgoing: 298

Incoming: Can you share its IC50? I mean this compound: O=S(=O)(c1cccc(Cl)c1)N1CC2CC1CN2c1nc(Nc2cc(C3CC3)[nH]n2)c2ccccc2n1 (stereo not shown) [compound 15q]
Outgoing: 545

Incoming: Can you share its IC50? I mean this compound: O=S(=O)(c1ccc(F)cc1F)N1CC2CC1CN2c1nc(Nc2cc(C3CC3)[nH]n2)c2ccccc2n1 (stereo not shown) [compound 15o]
Outgoing: 170

Incoming: Can you share its IC50? I mean this compound: Cc1cc(Nc2nc(Nc3ccc(CC#N)cc3)nc3ccccc23)n[nH]1
Outgoing: 330

Incoming: Can you share its IC50? I mean this compound: O=C(Nc1ccccc1)N1CC2CC1CN2c1nc(Nc2cc(C3CC3)[nH]n2)c2ccccc2n1 (stereo not shown) [compound 15c]
Outgoing: 265

Incoming: Can you share its IC50? I mean this compound: C1=C(c2ccccc2)CCN(c2nc(Nc3cc(C4CC4)[nH]n3)c3ccccc3n2)C1
Outgoing: 569

Incoming: Can you share its IC50? I mean this compound: O=S(=O)(c1cccs1)N1CC2CCC1CN2c1nc(Nc2cc(C3CC3)[nH]n2)c2ccccc2n1 (stereo not shown) [compound 24d]
Outgoing: 597

Incoming: Can you share its IC50? I mean this compound: CC(C)(C)OC(=O)N1CC2(CCN(c3nc(Nc4cc(C5CC5)[nH]n4)c4ccccc4n3)CC2)C1
Outgoing: 796

Incoming: Can you share its IC50? I mean this compound: N#CCc1ccc(Nc2nc(Nc3cc(C4CC4)[nH]n3)c3ccccc3n2)cc1
Outgoing: 178

Incoming: Can you share its IC50? I mean this compound: CC(C)(C)OC(=O)N1C2CCC1CN(c1nc(Nc3cc(C4CC4)[nH]n3)c3ccccc3n1)C2
Outgoing: 282
